Below, each of the molecules is paired with its reported melting point value.

Would you please look over these solved cases?
                                   molecule         result
0        COc1cc(Cl)cnc1OCC#Cc1cccc(OCC#N)n1         118 °C
1  CCCCCN(C(=O)Nc1ccc(C(=O)O)cn1)c1ccc2c(c1)C(C)(C)CCC2(C)C  175 to 180 °C
2        CC1(C)Cc2c(sc(N)c2C(N)=O)C(C)(C)C1  140 to 145 °C
3  CCCCCCCCCCOc1ccc(-c2ccc(CCC(C)O)cc2)cc1 (single isomer, unassigned; (+))    87 to 89 °C
4  Cc1cc(C)cc(Oc2ccc(Oc3cc(C)cc(C)c3)cc2)c1         103 °C

query: Recorded melting point of CC(C)CC(C(=O)O)C(=O)O , please.
result: 102 to 105 °C

query: // melting point lookup, key: Cc1c(SCCN2CCOCC2)ccnc1CSc1nc2ccccc2n1CCO
result: 141 to 143 °C

query: # input molecule: S=c1[nH]cnn1C[C@]1(c2ccccc2)O[C@@H]1c1ccc(Cl)c(Cl)c1Cl (relative stereo) ; wanted: its melting point
result: 168 to 171 °C

query: Entry CC(C)n1nc(-c2nc(C#Cc3ccccn3)c(N)nc2-c2ccccc2)ccc1=O : reported melting point = ?
result: 246 to 247 °C

query: Sample Cc1ccc(-c2ccccn2)cc1S(N)(=O)=O — what was its melting point?
result: 173 to 176 °C

query: GET /values?readout=melting point&item= CC(=O)N1CCC1CC(=O)O (configuration not stated)
result: 148 to 150 °C

query: Sample Nc1cc(=O)n(CCCO)c2nc(NC3CCCCC3)ncc12 — what was its melting point?
result: 131 to 132 °C

query: Given the entry COc1cccc(-n2nc(-c3ccccc3)c3cccnc32)c1 , report its measured melting point.
result: 102 to 105 °C

query: For the molecule Cc1c(F)cc(C(=O)O)c(Cl)c1N , what melting point is on record?
result: 182 to 184 °C

query: May I ask what melting point has been recorded for C=CCn1cc(Br)cnc1=O ?
result: 142 to 143 °C

query: Which value of melting point has been reported for CCCCC(C(=O)O)C1=C(c2ccccc2)c2ccccc2OC1 (configuration not stated) in the records?
result: 117 to 119 °C
